system-under-test: LGC-51/52 (Caenorhabditis elegans, UniProt Q9NA62+X5LVB0)
Sequence (X5LVB0 entry or part of it): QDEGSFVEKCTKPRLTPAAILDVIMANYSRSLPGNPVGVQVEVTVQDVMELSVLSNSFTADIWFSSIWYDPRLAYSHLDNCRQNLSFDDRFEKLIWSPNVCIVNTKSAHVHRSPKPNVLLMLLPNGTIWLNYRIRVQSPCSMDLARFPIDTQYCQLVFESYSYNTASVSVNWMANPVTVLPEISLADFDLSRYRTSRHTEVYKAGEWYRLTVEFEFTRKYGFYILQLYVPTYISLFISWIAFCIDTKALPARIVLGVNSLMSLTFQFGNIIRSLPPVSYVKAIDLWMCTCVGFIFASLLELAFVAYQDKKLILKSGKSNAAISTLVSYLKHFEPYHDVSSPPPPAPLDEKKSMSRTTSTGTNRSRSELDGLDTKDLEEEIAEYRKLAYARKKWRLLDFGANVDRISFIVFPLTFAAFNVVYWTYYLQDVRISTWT
Sequence (Q9NA62 entry or part of it): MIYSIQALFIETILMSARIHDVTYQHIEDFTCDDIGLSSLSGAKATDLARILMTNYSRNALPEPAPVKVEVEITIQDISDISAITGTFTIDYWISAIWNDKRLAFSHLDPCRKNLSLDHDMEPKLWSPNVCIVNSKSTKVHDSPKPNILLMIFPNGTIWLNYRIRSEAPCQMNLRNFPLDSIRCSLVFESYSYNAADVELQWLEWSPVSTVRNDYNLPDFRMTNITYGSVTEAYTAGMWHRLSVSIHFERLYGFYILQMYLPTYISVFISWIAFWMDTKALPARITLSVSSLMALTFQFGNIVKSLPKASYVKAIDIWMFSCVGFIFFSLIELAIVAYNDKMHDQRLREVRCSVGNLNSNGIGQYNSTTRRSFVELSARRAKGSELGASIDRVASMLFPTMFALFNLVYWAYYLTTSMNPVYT
measurement-description: Two-electrode voltage clamp, antagonist inhibitory dose response in Xenopus oocytes expressing LGC-51/52
condition-context: Xenopus oocytes, TEVC; agonist constant at its EC50; Hill equation, three-parameter slope
endpoint-label: IC50 (µM)
Number only, in µM; omit the unit.

// query Look at this compound and give its reported IC50. O=C(CCCN1CCC2(CC1)C(=O)NCN2c1ccccc1)c1ccc(F)cc1 [Spiperone, spiperone]
// result 170

###

system-under-test: LGC-50 Δ363-379 (Caenorhabditis elegans, UniProt P41849, DEL363-379)
Construct: Plasmid: KSM: lgc-50 (cDNA, Δ363-379)
Sequence (P41849 other isoform, or with tags, fused parts or gaps DEL363-379): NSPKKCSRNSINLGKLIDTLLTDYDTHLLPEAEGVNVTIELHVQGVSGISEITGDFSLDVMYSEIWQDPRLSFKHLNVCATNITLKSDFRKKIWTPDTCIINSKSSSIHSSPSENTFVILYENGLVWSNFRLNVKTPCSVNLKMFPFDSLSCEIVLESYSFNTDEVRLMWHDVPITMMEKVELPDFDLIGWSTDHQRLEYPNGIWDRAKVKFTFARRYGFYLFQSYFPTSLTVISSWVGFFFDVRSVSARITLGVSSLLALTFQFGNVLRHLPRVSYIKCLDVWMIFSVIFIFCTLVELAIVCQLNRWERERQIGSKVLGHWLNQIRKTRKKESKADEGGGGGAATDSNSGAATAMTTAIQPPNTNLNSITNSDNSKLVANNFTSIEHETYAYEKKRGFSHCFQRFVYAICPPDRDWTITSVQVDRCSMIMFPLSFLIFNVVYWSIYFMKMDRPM
measurement-description: Two-electrode voltage clamp, 5-HT evoked dose response, LGC-50 deletion mutant Δ363-379
endpoint-label: pEC50
Scale explanation: pEC50 corresponds to minus log10 of a concentration expressed in moles per litre.

// query Look at this compound and give its reported pEC50. NCCc1c[nH]c2ccc(O)cc12
// result 6.03

###

Reported values of pEC50 for individual entries
system-under-test: LGC-54 (Caenorhabditis elegans, UniProt O17041)
Sequence (O17041 entry or part of it): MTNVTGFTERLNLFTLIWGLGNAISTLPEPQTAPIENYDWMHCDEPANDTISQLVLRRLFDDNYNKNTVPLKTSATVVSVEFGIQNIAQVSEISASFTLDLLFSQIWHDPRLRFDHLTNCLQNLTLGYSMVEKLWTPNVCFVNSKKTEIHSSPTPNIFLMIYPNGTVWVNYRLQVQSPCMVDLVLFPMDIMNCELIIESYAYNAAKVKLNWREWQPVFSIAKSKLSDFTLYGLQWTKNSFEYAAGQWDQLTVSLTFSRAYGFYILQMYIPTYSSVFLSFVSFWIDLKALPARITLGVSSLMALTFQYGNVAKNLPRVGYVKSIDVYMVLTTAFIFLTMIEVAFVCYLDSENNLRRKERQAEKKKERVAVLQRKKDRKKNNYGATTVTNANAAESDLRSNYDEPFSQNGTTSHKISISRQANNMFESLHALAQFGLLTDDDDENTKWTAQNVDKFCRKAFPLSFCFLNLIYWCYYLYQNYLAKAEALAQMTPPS
measurement-description: Two-electrode voltage clamp, agonist-evoked currents in Xenopus oocytes expressing LGC-54
condition-context: Xenopus oocytes, TEVC; current normalized to Imax, Hill equation with variable slope; read-out: EC50, agonist-evoked dose response, LGC-54
Scale explanation: pEC50 corresponds to minus log10 of a concentration expressed in moles per litre.

Some compounds with recorded pEC50:
NCCc1ccc(O)cc1	4.89
NCCc1c[nH]c2ccc(O)cc12	4.03

Alright, here's another compound for you.
// query Look at this compound and give its reported pEC50. NCCc1ccc(O)c(O)c1
// result 4.74

###

system-under-test: LGC-50 S335A, T348A, S353A (Caenorhabditis elegans, UniProt P41849, S335A/S353A/T348A)
Construct: Plasmid: KSM: lgc-50 (cDNA, S335A, T348A, S353A)
Sequence (P41849 20-491 S335A/T348A/S353A): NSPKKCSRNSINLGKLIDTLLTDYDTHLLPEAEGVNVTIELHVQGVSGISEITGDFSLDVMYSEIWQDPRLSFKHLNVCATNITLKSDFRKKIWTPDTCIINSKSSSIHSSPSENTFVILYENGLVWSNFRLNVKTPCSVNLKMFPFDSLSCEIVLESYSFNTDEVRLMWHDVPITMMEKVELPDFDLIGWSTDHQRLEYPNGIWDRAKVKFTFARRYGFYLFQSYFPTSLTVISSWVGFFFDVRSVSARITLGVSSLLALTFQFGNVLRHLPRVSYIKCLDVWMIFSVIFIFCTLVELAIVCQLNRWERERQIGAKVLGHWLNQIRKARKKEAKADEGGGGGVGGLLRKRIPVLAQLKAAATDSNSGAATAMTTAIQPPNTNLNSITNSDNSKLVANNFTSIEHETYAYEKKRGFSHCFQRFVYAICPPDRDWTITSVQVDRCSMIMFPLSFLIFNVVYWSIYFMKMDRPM
measurement-description: Two-electrode voltage clamp, 5-HT evoked dose response, LGC-50 phospho-dead mutant
Procedure: In addition to this region, we also investigated three upstream predicted phosphorylation sites. Phosphorylation of the M3/4 loop has previously been implicated in the trafficking and cell surface recycling of GABAA receptors.[23]^,[24] […] Dose response curves were calculated from the peak current during a 10 s agonist stimulation in ND96 solution, with a 60 s ND96 wash in between doses. […] Kinetic measurements were calculated from a 60 s agonist perfusion. […]
endpoint-label: EC50 (nM)
Number only, in nM; omit the unit.

// query Look at this compound and give its reported EC50. NCCc1c[nH]c2ccc(O)cc12 [5-HT, serotonin]
// result 570

###

system-under-test: LGC-50 Δ363-397 (Caenorhabditis elegans, UniProt P41849, DEL363-397)
Construct: Plasmid: KSM: lgc-50 (cDNA, Δ363 - 397)
Sequence (P41849 other isoform, or with tags, fused parts or gaps DEL363-397): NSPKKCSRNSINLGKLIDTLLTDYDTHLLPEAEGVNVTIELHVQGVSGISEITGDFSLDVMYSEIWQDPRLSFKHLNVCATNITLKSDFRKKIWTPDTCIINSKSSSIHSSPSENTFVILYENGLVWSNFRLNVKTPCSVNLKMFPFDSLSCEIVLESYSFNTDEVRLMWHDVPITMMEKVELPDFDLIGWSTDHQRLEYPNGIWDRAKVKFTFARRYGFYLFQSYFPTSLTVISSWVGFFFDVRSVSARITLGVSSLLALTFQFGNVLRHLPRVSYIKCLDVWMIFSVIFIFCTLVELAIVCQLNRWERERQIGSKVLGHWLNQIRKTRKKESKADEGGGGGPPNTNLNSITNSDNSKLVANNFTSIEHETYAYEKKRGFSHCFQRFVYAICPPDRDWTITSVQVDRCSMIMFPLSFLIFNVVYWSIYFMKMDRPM
measurement-description: Two-electrode voltage clamp, 5-HT evoked dose response, LGC-50 deletion mutant Δ363-397
endpoint-label: pEC50
Scale explanation: pEC50 corresponds to minus log10 of a concentration expressed in moles per litre.

// query Look at this compound and give its reported pEC50. NCCc1c[nH]c2ccc(O)cc12 [5-HT, serotonin]
// result 6.03

###

system-under-test: LGC-51/52 (Caenorhabditis elegans, UniProt Q9NA62+X5LVB0)
measurement-description: Two-electrode voltage clamp, agonist-evoked currents in Xenopus oocytes co-expressing LGC-51 and LGC-52
condition-context: Xenopus oocytes co-expressing LGC-51 and LGC-52, TEVC; Hill equation with variable slope; read-out: EC50, agonist-evoked dose response, LGC-51/52 heteromer
endpoint-label: EC50 (µM)
Number only, in µM; omit the unit.

NCCc1ccc(O)c(O)c1 [dopamine]	0.81

// query Look at this molecule and give its reported EC50. NCCc1ccc(O)cc1 [tyramine]
// result 4
